- experiment description: Aqueous solubility at room temperature after 24 hrs by HPLC method
- Format: physicochemical
- applied conditions: aqueous medium
value type: solubility at 24 h (µM)
Numeric answer only, unit µM assumed.

Q: Return reported solubility at 24 h; argument: Cc1ccc(-c2cnc(C3CC3)o2)cc1S(=O)(=O)N[C@H]1CC[C@H](O)CC1
Result: 220

Source: ChEMBL document CHEMBL3351967
